Source listed as patent US20180057604A1.

Target: T1, human BACE1 ECD
T1 construct: analyte of the Octet assay (200 nM) and enzyme of the first short substrate assay; also called human BACE1 extracellular domain
T1 sequence (single chain, as listed by the source limits assumed): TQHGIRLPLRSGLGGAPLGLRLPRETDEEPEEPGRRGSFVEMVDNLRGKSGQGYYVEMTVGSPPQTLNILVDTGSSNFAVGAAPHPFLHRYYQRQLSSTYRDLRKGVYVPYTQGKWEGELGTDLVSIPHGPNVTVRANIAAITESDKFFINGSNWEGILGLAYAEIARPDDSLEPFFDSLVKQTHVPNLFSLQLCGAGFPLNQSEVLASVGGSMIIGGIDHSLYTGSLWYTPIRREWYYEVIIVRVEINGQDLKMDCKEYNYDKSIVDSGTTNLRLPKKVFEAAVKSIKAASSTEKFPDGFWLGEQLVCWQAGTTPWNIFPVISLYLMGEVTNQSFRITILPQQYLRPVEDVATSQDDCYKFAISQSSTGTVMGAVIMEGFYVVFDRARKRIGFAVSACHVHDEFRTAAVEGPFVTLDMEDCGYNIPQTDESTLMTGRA
Assay: Octet, pH 7.5;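 further: antibodies captured on anti-human capture biosensor tips, dissociation followed in PBS with BSA buffer, kinetics fitted with a one-to-one binding model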
Outcome Measure: pKd
Bear in mind: pKd is minus log10 of a mol/L concentration; give just that figure.

Return value of pKd for input 5536 (antibody, V domains shown, anti-BACE1 IgG) VH: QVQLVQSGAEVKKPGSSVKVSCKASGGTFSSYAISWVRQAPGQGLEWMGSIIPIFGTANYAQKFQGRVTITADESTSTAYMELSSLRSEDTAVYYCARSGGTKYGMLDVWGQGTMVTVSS VL: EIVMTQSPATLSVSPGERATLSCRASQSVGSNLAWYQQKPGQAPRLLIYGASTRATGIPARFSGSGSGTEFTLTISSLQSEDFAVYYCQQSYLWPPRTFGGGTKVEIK , no commentary.
7.82

Supply recorded pKd for 5878 (antibody, V domains shown, anti-BACE1 IgG) VH: EVQLLESGGGLVQPGGSLRLSCAASGFTFSSYAMSWVRQAPGKGLEWVSAISGSGISTPYADSVKGRFTISRDNSKNTLYLQMNSLRAEDTAVYYCAKGAGHGSYVKGWFDPWGQGTLVTVSS VL: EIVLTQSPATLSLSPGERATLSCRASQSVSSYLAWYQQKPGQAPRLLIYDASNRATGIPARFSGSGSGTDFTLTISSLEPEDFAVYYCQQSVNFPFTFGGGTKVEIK here.
8.60

Query pKd for 5880 (antibody, V domains shown, anti-BACE1 IgG) VH: EVQLLESGGGLVQPGGSLRLSCAASGFTFGSYAMTWVRQAPGKGLEWVSAISGSGISTPYADSVKGRFTISRDNSKNTLYLQMNSLRAEDTAVYYCAKGAGHGSYVKGWFDPWGQGTLVTVSS VL: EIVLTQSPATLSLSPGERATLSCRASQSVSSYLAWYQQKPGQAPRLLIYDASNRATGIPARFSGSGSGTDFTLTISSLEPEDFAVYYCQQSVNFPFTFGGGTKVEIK
9.00
